System: RD
methodSummary: relative viability vs DMSO control (72 h) (fraction); higher = more viable cells
appliedConditions: 0.00051 µM
relative viability listing for selected compounds.
quantityMeasured: relative viability

compound="O=C(/C=C\\n1cnc(-c2cc(C(F)(F)F)cc(C(F)(F)F)c2)n1)NNc1cnccn1 [Selinexor]" testtarget=RD reportedmeasurement=1.08
compound=CO[C@H]1C[C@@H]2CC[C@@H](C)[C@@](O)(O2)C(=O)C(=O)N2CCCC[C@H]2C(=O)O[C@H]([C@H](C)C[C@@H]2CC[C@@H](OC(=O)C(C)(CO)CO)[C@H](OC)C2)CC(=O)[C@H](C)/C=C(\C)[C@@H](O)[C@@H](OC)C(=O)[C@H](C)C[C@H](C)/C=C/C=C/C=C/1C testtarget=RD reportedmeasurement=1.01
compound=CN(C)CCCOc1ccc(-c2ccc3ncc4c(c3c2)n(C2CCOCC2)c(=O)n4C)cn1 testtarget=RD reportedmeasurement=1.08

----------
System: A204
methodSummary: relative viability vs DMSO control (72 h) (fraction); higher = more viable cells
appliedConditions: 0.01372 µM
# if measured relative viability < 1: TRUE  # else: FALSE

compound="CNC(=O)c1cccc2cc(Oc3ccnc4cc(OCC5(N)CC5)c(OC)cc34)ccc12 [Lucitanib]" testtarget=A204 cat=TRUE
compound="O=C(c1ccc(F)c(F)c1Nc1ccc(I)cc1F)N1CC(O)([C@@H]2CCCCN2)C1 [Cobimetinib]" testtarget=A204 cat=FALSE
compound="CCOc1cc2ncc(C#N)c(Nc3ccc(OCc4ccccn4)c(Cl)c3)c2cc1NC(=O)/C=C/CN(C)C [Neratinib]" testtarget=A204 cat=FALSE
compound="CN(C)CCCOc1ccc(-c2ccc3ncc4c(c3c2)n(C2CCOCC2)c(=O)n4C)cn1 [AZD-0156]" testtarget=A204 cat=FALSE
compound="Cc1cc(F)c(C(=O)Nc2cccc(-c3nncn3C(C)C)n2)cc1-n1cnc(C2CC2)c1 [Selonsertib]" testtarget=A204 cat=FALSE

----------
relative viability listing for selected molecules.
Tested on: G401
methodSummary: relative viability vs DMSO control (72 h) (fraction); higher = more viable cells
appliedConditions: 10 µM
quantityMeasured: relative viability

molecule=COc1cc(Nc2ncc3c(n2)-c2ccc(Cl)cc2C(c2c(F)cccc2OC)=NC3)ccc1C(=O)O reportedmeasurement=0.563
molecule=CN(C)C/C=C/C(=O)Nc1cc2c(Nc3ccc(F)c(Cl)c3)ncnc2cc1O[C@H]1CCOC1 reportedmeasurement=0.212
molecule="O=C(/C=C\\n1cnc(-c2cc(C(F)(F)F)cc(C(F)(F)F)c2)n1)NNc1cnccn1 [Selinexor]" reportedmeasurement=0.235
molecule="O=S(=O)(c1cccc2c(O)nccc12)N1CCCNCC1 [Hydroxyfasudil]" reportedmeasurement=0.944
molecule=CNC(=O)c1c(C)oc2cc(Oc3ncnc4cc(OC)c(OC)cc34)ccc12 reportedmeasurement=0.57
molecule=CC(=O)c1c(C)c2cnc(Nc3ccc(N4CCNCC4)cn3)nc2n(C2CCCC2)c1=O reportedmeasurement=0.293

----------
Tested on: G401
methodSummary: relative viability vs DMSO control (72 h) (fraction); higher = more viable cells
appliedConditions: 0.00152 µM
relative viability listing for selected compounds.
quantityMeasured: relative viability

compound="C[C@@H]1CN(C(=O)c2ccc(NC(=O)c3cc(O[C@H](C)c4c(Cl)ccc(F)c4Cl)c(N)nn3)cc2)C[C@H](C)N1 [Ensartinib]" reportedmeasurement=0.98
compound="Cc1cc2c(F)c(Oc3ncnn4cc(OC[C@@H](C)OC(=O)[C@H](C)N)c(C)c34)ccc2[nH]1 [Brivanib_alaninate]" reportedmeasurement=1
compound="CNC(=O)c1c(C)oc2cc(Oc3ncnc4cc(OC)c(OC)cc34)ccc12 [Fruquintinib]" reportedmeasurement=1.02
compound="CCOc1cc2ncc(C#N)c(Nc3ccc(OCc4ccccn4)c(Cl)c3)c2cc1NC(=O)/C=C/CN(C)C [Neratinib]" reportedmeasurement=0.998
